Source: patent US20180305450A1

# Assayed System: T1, recombinant biotinylated human PAR2 extracellular domain (residues 1-75), N-terminal AviTag, C-terminal Flag … (human, UniProt P55085 26-75, biotin on the AviTag (enzymatic biotinylation))
# T1 construct: also called Bio-human-PAR2 ECD; human PAR2 ECD; not shown: N-terminal AviTag (Avidity LLC); C-terminal Flag and poly Histidine tags
# T1 sequence (P55085 26-75): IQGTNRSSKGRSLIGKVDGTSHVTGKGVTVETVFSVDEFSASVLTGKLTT
# Assay Comment: HTRF competition with Par0067 IgG, scFv
# Procedure: 5 μl/well of the appropriate pH 4.44 nM Par0067 IgG solution was added to all wells of the relevant assay plate (pH 7.4 and pH 6.0). […] For multipoint dose response curves % Specific Binding values were plotted versus test purified antibody concentration (scFv or IgG). IC₅₀ values were determined via a sigmoidal dose response inhibition variable slope curve fit (4 parameter logistic equation) using Graphpad Prism Software.
Readout Kind: Fold IC50 (pH 6.0 v pH 7.4)

# Fold IC50 (pH 6.0 v pH 7.4) (binder: PaB670045 scFv (scFv, V domains shown, purified scFv; also called ZZ1KX3-F01) VH: EVQLLESGGGLVQPGGSLRLSCAASGFTFSSYAMNWVRQAPGKGLEWVSTISYSGSLISYADSVKGRFTISRDNSKNTLYLQMNSLRAEDTAVYYCARIHHDPMDVWGQGTLVTVSS VL: SIELTQPPSVSVSPGQTASITCSGDNLGKKYVQWYQQKPGQSPVLVIYDDSNRPSGIPERFSGSNSGNTATLTISGTQAMDEADYYCQTWDGNPTTGETNVFGGGTKLTVL ) is 7.4 fold

# Fold IC50 (pH 6.0 v pH 7.4) (binder: PaB670094 scFv (scFv, V domains shown, purified scFv; also called ZZ1ODS-B08) VH: EVQLLESGGGLVQPGGSLRLSCAASGFTFSSYAMNWVRQAPGKGLEWVSTISYHGHHISHADHHKGRFTISRDNSKNTLYLQMNSLRAEDTAVYYCARINNDPMDVWGQGTLVTVSS VL: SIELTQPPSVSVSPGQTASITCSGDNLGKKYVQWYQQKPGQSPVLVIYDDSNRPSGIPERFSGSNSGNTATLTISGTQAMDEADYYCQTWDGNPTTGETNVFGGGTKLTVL ) is 3.3 fold

# Fold IC50 (pH 6.0 v pH 7.4) (binder: PaB670107 scFv (scFv, V domains shown, purified scFv; also called ZZ1RD3-D09) VH: EVQLLESGGGLVQPGGSLRLSCAASGFTFSSYAMNWVRQAPGKGLEWVSTISYSGSLISYADSVKGRFTISRDNSKNTLYLQMNSLRAEDTAVYYCARINNDPMDVWGQGTLVTVSS VL: SIELTQPPSVSVSPGQTASITCSGDNLGKKYVQWYQQKPGQSPVLVIYDDSNRPSGIPERFSGSNSGNTATLTISGTQAMDEADYYCHHWHHNPTHHETNVFGGGTKLTVL ) is 10.9 fold
